- Measured Target: HSV-1 TK (Human alphaherpesvirus 1 strain KOS, UniProt P17402)
- Sequence (P17402 whole entry, looked up): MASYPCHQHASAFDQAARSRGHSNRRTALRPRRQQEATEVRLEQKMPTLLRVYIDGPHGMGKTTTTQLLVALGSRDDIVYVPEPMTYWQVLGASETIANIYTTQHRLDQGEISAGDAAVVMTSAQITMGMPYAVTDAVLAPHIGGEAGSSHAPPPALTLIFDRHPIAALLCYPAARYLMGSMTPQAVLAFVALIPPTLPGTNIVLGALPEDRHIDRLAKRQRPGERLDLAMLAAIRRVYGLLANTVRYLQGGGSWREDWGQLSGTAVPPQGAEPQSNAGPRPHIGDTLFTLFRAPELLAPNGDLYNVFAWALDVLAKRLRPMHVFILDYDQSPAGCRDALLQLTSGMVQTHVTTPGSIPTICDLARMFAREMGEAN
- Protocol Notes: Thymidine kinase inhibitory assay
- Experimental Context: 1 μM [^3 H]thymidine, 5 mM ATP, pH 7.5, 37° C., 1 hour; 0-20 μM inhibitor; slope replots of Lineweaver-Burk plots
Consider the following compounds; for each one, report its pKi.
Answers are plain numbers, as −log10 of the molar value.

Worked examples, 3 compounds total:
Compound | pKi
Cc1cn([C@H]2C[C@@H](O)[C@H](OCc3ccc(Br)cc3)O2)c(=O)[nH]c1=O [Compound 16] | 5.00
CO[C@H]1O[C@@H](n2cc(C)c(=O)[nH]c2=O)C[C@@H]1O (single isomer, unassigned) [Compound 2] | 5.49
Cc1cn([C@H]2C[C@H](O)[C@@H](OCCc3ccccc3)O2)c(=O)[nH]c1=O [Compound 12] | 4.59

Here is the next item to consider.
// query Consider the compound shown here: Cc1cn([C@H]2C[C@@H](O)[C@H](OCCc3ccccc3)O2)c(=O)[nH]c1=O [Compound 13] What is its recorded pKi?
// result 5.37

These entries and their values trace back to patent US5306722A.
